# assayedTarget: protein kinase B (PKB)
# procedureDetails: cell-based or functional assay
Numbered stars: 1 amine (or outer) side, 2 acyl side, 3 side chain; on linkers, the order of the positions; unused ones are H or OH. Square brackets hold non-standard residues; d marks the D form. * marks the point of attachment. Cholesteryloxycarbonyl = CC(C)CCC[C@@H](C)[C@H]1CC[C@H]2[C@@H]3CC=C4C[C@@H](OC(=O)*)CC[C@]4(C)[C@H]3CC[C@]12C; Ser(Me) = COC[C@H](N[*:1])C(=O)[*:2]; hLeu = CC(C)CC[C@H](N)C(=O)O; Orn = NCCC[C@H](N)C(=O)O; Nva = CCC[C@H](N)C(=O)O; Dap = NC[C@H](N)C(=O)O
propertyLabel: IC50, in vitro kinase assay PKB

binder: Cholesteryloxycarbonyl-RP[Orn][Nva]Y[Dap][hLeu]-NH2 (SMILES CCC[C@H](NC(=O)[C@H](CCCN)NC(=O)[C@@H]1CCCN1C(=O)[C@H](CCCNC(=N)N)NC(=O)O[C@H]1CC[C@@]2(C)C(=CC[C@H]3[C@@H]4CC[C@H]([C@H](C)CCCC(C)C)[C@@]4(C)CC[C@@H]32)C1)C(=O)N[C@@H](Cc1ccc(O)cc1)C(=O)N[C@@H](CN)C(=O)N[C@@H](CCC(C)C)C(N)=O) [PTR 6388]
propertyLabel: IC50, in vitro kinase assay PKB
observedValue: 2000 nM

API: the following record is the query input.
Query: Look up IC50, in vitro kinase assay PKB of Cholesteryloxycarbonyl-RPR[Nva]Y[Ser(Me)][hLeu]-NH2 (SMILES CCC[C@H](NC(=O)[C@H](CCCNC(=N)N)NC(=O)[C@@H]1CCCN1C(=O)[C@H](CCCNC(=N)N)NC(=O)O[C@H]1CC[C@@]2(C)C(=CC[C@H]3[C@@H]4CC[C@H]([C@H](C)CCCC(C)C)[C@@]4(C)CC[C@@H]32)C1)C(=O)N[C@@H](Cc1ccc(O)cc1)C(=O)N[C@@H](COC)C(=O)N[C@@H](CCC(C)C)C(N)=O) [PTR 6304] and report it.
Result: 500 nM
